- target: KRAS G12D Ba/F3 (Homo sapiens, UniProt P01116, G12D, cells depend on it)
- Sequence (P01116 whole entry G12D): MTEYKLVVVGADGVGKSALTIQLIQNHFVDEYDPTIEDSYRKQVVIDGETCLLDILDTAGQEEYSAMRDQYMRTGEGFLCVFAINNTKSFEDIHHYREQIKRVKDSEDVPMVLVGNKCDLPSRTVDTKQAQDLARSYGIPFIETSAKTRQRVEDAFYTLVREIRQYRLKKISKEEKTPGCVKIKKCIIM
- assay_overview: Ba/F3 proliferation assay, KRAS G12D
- Assay type: cell-based
- condition_context: 72 h, AlamarBlue, read-out: KRAS G12D Ba/F3 IC50
Attribute: GI50
Report the figure in nM without appending any unit label.

Solved entries:
[
  {
    "smi": "C[C@H](Oc1cc(Nc2nccs2)nc(-c2noc3c2CCC[C@@]32CCCc3sc(N)c(C#N)c32)n1)[C@@H]1CCCN1C",
    "endpoint_unit": "nM",
    "GI50": 65
  },
  {
    "smi": "C[C@H](Oc1cc(Oc2ccon2)nc(-c2noc3c2CCC[C@@]32CCCc3sc(N)c(C#N)c32)n1)[C@@H]1CCCN1C",
    "endpoint_unit": "nM",
    "GI50": 27
  },
  {
    "smi": "C[C@H](Oc1cc(NCC2COC2)nc(-c2noc3c2CCC[C@@]32CCCc3sc(N)c(C#N)c32)n1)[C@@H]1CCCN1C",
    "endpoint_unit": "nM",
    "GI50": 28
  }
]

Please give the documented GI50 of `COc1c(OCC2(N(C)C)COC2)nc(-c2noc3c2CCC[C@@]32CCCc3sc(N)c(C#N)c32)nc1O[C@@H](C)[C@@H]1CCCN1C` 15
